Reported melting point values for a set of compounds

Sample answers from the record:
compound | melting point
CNc1c(NCCSCc2[nH]cnc2C)c(=O)c1=O | 208 °C
CCCc1c(C(=O)C(C)C)c2ccc(C(=O)OC)cc2n1Cc1ccc(Br)cc1F | 110 to 112 °C
C#CC(C)(C)Oc1ccc2ncccc2c1 | 65 to 67 °C
OC1CSC(Oc2cncc(-c3ccncc3Cl)c2)C(O)C1O (configuration not stated) | 208 °C
CCCCc1nc(Cl)c(Cl)[nH]1 | 122 to 123 °C

Req: State the recorded melting point for this entry: CCCn1nc(OCc2ccccc2)cc1/C=C/C(=O)OCC
Resp: 58 to 59 °C

Req: State the recorded melting point for this entry: CS(=O)(=O)Nc1cc2occ(N(C=O)CC(=O)O)c(=O)c2cc1Oc1ccccc1
Resp: 98 to 100 °C

Req: State the recorded melting point for this entry: NC(=O)c1c(Cl)c(-c2ccccc2)n2c1CN(C(=O)Cc1cccs1)CC2
Resp: 225 to 229 °C

Req: State the recorded melting point for this entry: O[C@@H](CCOc1cccc2ccccc12)c1ccccc1
Resp: 76 to 78 °C

Req: State the recorded melting point for this entry: Cc1cc(O)nc(C(Cl)(Cl)Cl)n1
Resp: 173 to 174 °C

Req: State the recorded melting point for this entry: CCc1ccccc1-c1cccc(-n2cnc(-c3nc(C)no3)c2)c1
Resp: 150 to 156 °C

Req: State the recorded melting point for this entry: COC(=O)[C@H](O)[C@@H](O)C(C)C
Resp: 32 to 34 °C

Req: State the recorded melting point for this entry: O=Cc1cc(F)cc2c1OCCC2
Resp: 55 to 57 °C
